molecular target: Protein translocase subunit SecA (Escherichia coli (strain K12)); assay: Assay to Identify E. coli SecA ATPase Inhibitors; format: functional; parameters: scale not given: direction of the effect not stated beside the values; settings: 30 µM
Potency and affinity values are given separately.
Measurement Kind: Percent Effect
Please state the number and follow it with the unit.

Worked examples follow.
CCCn1[nH]cc/c1=N\C(=O)CN1CCc2c(nc(C(C)C)n2C)C1; -0.801%
CS(=O)(=O)NCCCNC(=O)c1cccnc1O; -3.07%
CC(Cn1cccn1)NC(=O)Nc1nnc(C2CC2)s1 (stereo unspecified); -8.16%

Challenge: For COc1cc(CN2CCN(c3cccc(OC)c3)C(=O)C2)cc(OC)c1 , write its Percent Effect.
Response given: -1.99%

Challenge: For CS(=O)(=O)NC[C@]12COC[C@H]1CN(C(=O)Cc1ccccc1F)C2 , write its Percent Effect.
Response given: 0.295%

Challenge: For Cc1cnc(CN(C)C2CCN(CCc3ccccn3)CC2)cn1 , write its Percent Effect.
Response given: -1.96%

* * *

molecular target: Sialic acid-binding Ig-like lectin 9 (Homo sapiens); assay: Hs-Siglec9 ALPHAscreen SOP 20170721; parameters: scale not given: direction of the effect not stated beside the values; details: 10 µM
Measurement Kind: Percent Effect (%)
The response must be a number in % with no trailing unit.

CC(CNC(=O)Nc1cn[nH]c1)N1CCOCC1 (configuration not stated); -6.2
COCCC(=O)N1CCC2(COCc3c(C)nc(NCC4CC4)nc32)C1 (configuration not stated); 1.42
Cc1cnn(CC2CCCCN2C(=O)Cc2csc(C)n2)c1 (configuration not stated); 1.29

Challenge: For c1ncn(CC2CCCN(Cc3nc(C4CC4)no3)C2)n1 (configuration not stated) , write its Percent Effect.
Response given: 8.58

Challenge: For O=C(c1cnoc1)N1CCC[C@]2(C[C@H](Oc3ncccc3F)CO2)C1 , write its Percent Effect.
Response given: 25

Challenge: For Cc1c(C2CCCN(C(=O)C3CC3)C2)n2c(nc1=O)CCC2 (configuration not stated) , write its Percent Effect.
Response given: -4.63

Challenge: For Cc1cc(N2CCC(N(C)C(=O)c3ccccc3)CC2)nc(C)n1 , write its Percent Effect.
Response given: 4.5

Challenge: For O=C(NCCCn1cccn1)C1(c2ccc(F)cc2)CC1 , write its Percent Effect.
Response given: 3.37

* * *

Target: Arginase-2, mitochondrial (Homo sapiens) (UniProt P78540)
Sequence (whole entry): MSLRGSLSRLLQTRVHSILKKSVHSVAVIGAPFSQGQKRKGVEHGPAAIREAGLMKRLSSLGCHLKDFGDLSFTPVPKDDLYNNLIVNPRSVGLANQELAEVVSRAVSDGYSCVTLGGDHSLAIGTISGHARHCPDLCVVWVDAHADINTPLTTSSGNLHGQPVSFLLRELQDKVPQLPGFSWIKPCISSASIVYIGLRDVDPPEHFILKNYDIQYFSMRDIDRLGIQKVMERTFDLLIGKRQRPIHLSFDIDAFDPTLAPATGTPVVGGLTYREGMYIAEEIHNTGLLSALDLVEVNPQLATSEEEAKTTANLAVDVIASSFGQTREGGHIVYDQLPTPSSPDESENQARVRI
Experiment: in vitro enzyme assay to detect the production of urea directly proportional to the activity of Arginase II; further: in the data most compounds retested in dose-response had high values
Assay type: functional
Design: scale not given: direction of the effect not stated beside the values
Conditions: 33.3 µM
compounds and their reported Percent Effect
The response must be a number in % with no trailing unit.

CC(C)n1c(=O)nc2n1C(=O)N(c1ccccc1)C2; -4.73

Below: the item to evaluate.
Challenge: For O=C(NCCN1CCCc2ccccc21)c1scnc1Cl , write its Percent Effect.
Response given: -0.719

* * *

Target: Tyrosyl-tRNA synthetase, putative (Trypanosoma cruzi (strain CL Brener))
Sequence (whole entry): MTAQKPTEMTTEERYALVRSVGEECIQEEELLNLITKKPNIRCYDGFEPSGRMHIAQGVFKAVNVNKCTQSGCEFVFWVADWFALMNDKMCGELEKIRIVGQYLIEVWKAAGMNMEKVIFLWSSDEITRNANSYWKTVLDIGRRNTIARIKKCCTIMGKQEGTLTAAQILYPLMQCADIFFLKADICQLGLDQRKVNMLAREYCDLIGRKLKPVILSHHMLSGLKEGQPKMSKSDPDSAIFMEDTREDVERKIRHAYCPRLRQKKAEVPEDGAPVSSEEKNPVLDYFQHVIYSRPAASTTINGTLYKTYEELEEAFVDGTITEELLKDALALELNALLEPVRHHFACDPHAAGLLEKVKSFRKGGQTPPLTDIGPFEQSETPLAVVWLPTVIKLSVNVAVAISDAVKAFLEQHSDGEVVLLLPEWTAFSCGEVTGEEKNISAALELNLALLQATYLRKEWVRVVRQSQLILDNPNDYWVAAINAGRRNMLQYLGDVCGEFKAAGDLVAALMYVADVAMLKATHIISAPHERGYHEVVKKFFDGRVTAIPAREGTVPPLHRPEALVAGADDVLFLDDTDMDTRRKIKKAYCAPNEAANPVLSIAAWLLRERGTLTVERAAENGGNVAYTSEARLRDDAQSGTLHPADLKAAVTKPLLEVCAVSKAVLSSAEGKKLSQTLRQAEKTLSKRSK
Experiment: Trypanosoma cruzi tyrosyl tRNA synthetase (TcYRS) _High Tyrosine SOP; further: in the data most compounds retested in dose-response had high values
Format: functional
Design: scale not given: direction of the effect not stated beside the values
Conditions: 30 µM
Measurement Kind: Percent Effect
Please state the number and follow it with the unit.

Worked examples follow.
O=C(C1CCN(c2snc3ccccc23)CC1)N1CCCCCC1; 5.21%
Cc1ccc(CN(CCCn2ccnc2)Cc2c[nH]cn2)s1; 9.68%
CN(C)S(=O)(=O)N1CCC(Oc2ccc(C#N)cn2)CC1; 5.29%
CCc1nc(COc2ccc(OCc3cnn(C)c3)cc2)no1; 3.7%
Cc1cn(CC(=O)NC2CCN(S(C)(=O)=O)CC2)c2ccccc12; 2.15%

Challenge: For CC(C)C1CN(c2ncc(F)cn2)CCC(=O)N1Cc1ccc(F)cc1 (stereo unspecified) , write its Percent Effect.
Response given: 9.47%

* * *

target: Tyrosyl-tRNA synthetase, putative (Trypanosoma cruzi (strain CL Brener)) (UniProt Q4DSP6); test: Trypanosoma cruzi tyrosyl tRNA synthetase (TcYRS) SOP; format: functional; set-up: scale not given: direction of the effect not stated beside the values; conditions: 30 µM
compounds and their reported Percent Effect
The response must be a number in % with no trailing unit.

Worked examples follow.
O=C(c1cccc(CNCC2CNc3ccnn3C2)c1)N1CCCC1 (stereo unspecified); 10.1
Cc1csc(C2CCCN(C(=O)c3cc(Cl)c[nH]3)C2)n1 (stereo unspecified); 13.6
CC(=O)c1cn(CC(=O)NC(C(=O)O)C(C)C)c2ccccc12 (stereo unspecified); 1.24
CN1CCC(c2nnc(CN3CCC(O)CC3)n2C)CC1; 15
COCCOc1ccc(NC(=O)N2CCCC2c2ccncc2)cn1 (stereo unspecified); 0

Below: the item to evaluate.
Challenge: For Cc1cc(C(F)(F)F)nn1C(C)C(=O)Nc1ccncc1 (stereo unspecified) , write its Percent Effect.
Response given: 12.8

* * *

biological target: Sialic acid-binding Ig-like lectin 9 (Homo sapiens); test: Hs-Siglec9 ALPHAscreen SOP 20170721; parameters: scale not given: direction of the effect not stated beside the values; details: 10 µM
molecules and their reported Percent Effect

Challenge: For COc1ccccc1CN(C)c1nccc(-c2cn(C)nc2C)n1 , write its Percent Effect.
Response given: 8.22%

Challenge: For CC(C)n1c(=O)nc2n1C(=O)N(c1ccccc1)C2 , write its Percent Effect.
Response given: -3.33%

Challenge: For CC(=O)c1cc(CC(=O)NCc2ccc(F)cc2)cs1 , write its Percent Effect.
Response given: 3.19%

Challenge: For COCc1cccc(NC(C)C(=O)N(C)Cc2cccc(F)c2)c1 (centres undefined) , write its Percent Effect.
Response given: -7.46%

* * *

molecular target: Tyrosyl-tRNA synthetase, putative (Trypanosoma cruzi (strain CL Brener)); test: Trypanosoma cruzi tyrosyl tRNA synthetase (TcYRS) SOP; format: functional; design: scale not given: direction of the effect not stated beside the values; conditions: 30 µM
If the reported Percent Effect equals or exceeds 10%, assign Satisfied. If not, assign Not satisfied.

COC[C@@]12CCO[C@@H]1CCN(Cc1ccccc1F)C2; Not satisfied
Cc1ccc(CNC(=O)CN2CCN(CC(O)C3CC3)CC2)cc1 (stereo not given); Satisfied
Cn1ccc(C(=O)N2CCC[C@]3(C[C@@H](OCc4ccccn4)CO3)C2)n1; Satisfied
Cc1nc(CN2C(=O)COC3(CCN(Cc4nccs4)CC3)C2C)cs1 (stereo not given); Satisfied
CNC(=O)CS(=O)(=O)Cc1coc(-c2ccc(F)cc2)n1; Satisfied

Challenge: Say whether CN(C)CCOCC1CN(CC2CCOCC2)Cc2nnn(C)c21 (stereo not given) shows Percent Effect of 10% or more.
Response given: Satisfied

Challenge: Say whether CC(=O)NCC1CCN(CC2CCOc3ccccc3C2)CC1 (stereo not given) shows Percent Effect of 10% or more.
Response given: Satisfied

Challenge: Say whether COc1ccc(Br)c(C(=O)NCC2CCN(S(=O)(=O)C3CC3)CC2)c1 shows Percent Effect of 10% or more.
Response given: Satisfied

Challenge: Say whether CCOC(=O)CCCNC(=O)CN1CCN(c2ncccn2)CC1 shows Percent Effect of 10% or more.
Response given: Not satisfied

Challenge: Say whether CCN(C1CCS(=O)(=O)C1)S(=O)(=O)c1cccc2cc(C)cnc12 (stereo not given) shows Percent Effect of 10% or more.
Response given: Satisfied

Challenge: Say whether CCCc1noc(CCC(=O)N2CCCC2c2ccsc2)n1 (stereo not given) shows Percent Effect of 10% or more.
Response given: Not satisfied

Challenge: Say whether CCOc1cc(/C=C/c2ncc(C(=O)O)s2)ccc1O shows Percent Effect of 10% or more.
Response given: Not satisfied

Values from ChEMBL document CHEMBL3988442
